Reference source for all entries: ChEMBL document CHEMBL1144433

Assay: Pharmacokinetic parameter hal life studied in rat
Type: ADME, organism-based
Settings: in vivo
Measured Attribute: half-life (h)
Give just the number in h; leave the unit off.

Query block: Look up half-life for this compound: CC(C)(C)NC(=O)C1(C2CCCCC2)CCN(C(=O)[C@@H](Cc2ccc(Cl)cc2)NC(=O)[C@H]2CCc3ccccc3[C@H]2N)CC1
Result block: 2

###

Assay: Pharmacokinetic parameter Vdss studied in dog
Format: ADME, organism-based, Canis lupus familiaris
Details: in vivo, read-out: Vdss
Measured Attribute: Vd (L/kg)
Give just the number in L/kg; leave the unit off.

Query block: Look up Vd for this compound: CC(C)(C)NC(=O)C1(C2CCCCC2)CCN(C(=O)[C@@H](Cc2ccc(Cl)cc2)NC(=O)[C@H]2CCc3ccccc3[C@H]2N)CC1
Result block: 2.9

###

Target: Melanocortin receptor 5 (Homo sapiens)
Sequence (P33032 whole entry): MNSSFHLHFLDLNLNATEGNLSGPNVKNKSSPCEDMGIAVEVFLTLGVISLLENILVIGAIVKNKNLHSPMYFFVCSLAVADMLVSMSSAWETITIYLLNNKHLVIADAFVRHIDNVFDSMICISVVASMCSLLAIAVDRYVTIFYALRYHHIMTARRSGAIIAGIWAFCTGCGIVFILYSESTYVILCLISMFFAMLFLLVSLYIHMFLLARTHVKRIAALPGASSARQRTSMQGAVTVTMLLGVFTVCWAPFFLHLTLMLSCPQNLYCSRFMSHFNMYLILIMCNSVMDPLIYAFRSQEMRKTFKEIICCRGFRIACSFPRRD
Assay: Concentration required for 50% inhibition by displacement of [125I]NDP-alpha-MSH of human MC5R expressed in CHO cells
Measured Attribute: pIC50
Hey, just a heads up that pIC50 is the negative log base 10 of the concentration in molar.

Example entries begin here.
CC(C)(C)NC(=O)C1(C2CCCCC2)CCN(C(=O)[C@@H](Cc2ccc(Cl)cc2)NC(=O)C2Cc3ccccc3C2N)CC1 (stereo not given in full) : 7.47
CC(C)(C)NC(=O)C1(C2CCCCC2)CCN(C(=O)[C@@H](Cc2ccc(Cl)cc2)NC(=O)[C@H]2CCc3ccccc3[C@@]2(C)N)CC1 : 7.51
CC(C)(C)NC(=O)C1(C2CCCCC2)CCN(C(=O)[C@@H](Cc2ccc(Cl)cc2)NC(=O)[C@@H]2CCc3ccccc3[C@@H]2N)CC1 : 7.62
CC(C)(C)NC(=O)C1(C2CCCCC2)CCN(C(=O)[C@@H](Cc2ccc(Cl)cc2)NC(=O)C2CCCc3ccccc3C2N)CC1 (stereo not given in full) : 7.27

Alright, here's another compound for you.
Query block: Short answer please: pIC50, Melanocortin receptor 5 (Homo sapiens), entry CC(C)(C)NC(=O)C1(C2CCCCC2)CCN(C(=O)[C@@H](Cc2ccc(Cl)cc2)NC(=O)[C@H]2CCc3ccccc3[C@H]2N)CC1
Result block: 7.19

###

Biological target: Melanocortin receptor 4 (Homo sapiens, UniProt P32245)
Sequence (P32245 whole entry): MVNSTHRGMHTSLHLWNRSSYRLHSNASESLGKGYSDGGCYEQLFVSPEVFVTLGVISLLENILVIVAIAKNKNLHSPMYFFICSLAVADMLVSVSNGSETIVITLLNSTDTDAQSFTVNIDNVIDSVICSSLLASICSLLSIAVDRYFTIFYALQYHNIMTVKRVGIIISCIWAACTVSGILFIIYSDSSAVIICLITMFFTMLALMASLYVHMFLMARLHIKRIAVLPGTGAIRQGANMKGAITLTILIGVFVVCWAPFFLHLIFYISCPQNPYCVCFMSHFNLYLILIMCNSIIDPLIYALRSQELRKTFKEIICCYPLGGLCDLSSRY
Test: Concentration required for 50% inhibition by displacement of [125I]NDP-alpha-MSH of human MC4R expressed in CHO cells
Let's look at some compounds and their measured IC50.
Give just the number in nM; leave the unit off.

Example entries begin here.
CC(C)(C)NC(=O)C1(C2CCCCC2)CCN(C(=O)[C@@H](Cc2ccc(Cl)cc2)NC(=O)C2Cc3ccccc3C2N)CC1 (stereo not given in full) : 1.9
CC(C)(C)NC(=O)C1(C2CCCCC2)CCN(C(=O)[C@@H](Cc2ccc(Cl)cc2)NC(=O)[C@@H]2CCc3ccccc3[C@@H]2N)CC1 : 0.77
CC(C)(C)NC(=O)C1(C2CCCCC2)CCN(C(=O)[C@@H](Cc2ccc(Cl)cc2)NC(=O)[C@H]2CCc3ccccc3[C@H]2N)CC1 : 0.37
CC(C)(C)NC(=O)C1(C2CCCCC2)CCN(C(=O)[C@@H](Cc2ccc(Cl)cc2)NC(=O)[C@H]2CCc3ccccc3[C@@]2(C)N)CC1 : 1.1

Query block: Look up IC50 for this compound: CC(C)(C)NC(=O)C1(C2CCCCC2)CCN(C(=O)[C@@H](Cc2ccc(Cl)cc2)NC(=O)C2CCCc3ccccc3C2N)CC1 (stereo not given in full)
Result block: 1.1

###

Assay: Pharmacokinetic parameter Cl(clearance) studied in dog
Assay type: ADME, organism-based, Canis lupus familiaris
Conditions: in vivo
Measured Attribute: clearance (mL/min/kg)
Give just the number in mL/min/kg; leave the unit off.

Query block: Look up clearance for this molecule: CC(C)(C)NC(=O)C1(C2CCCCC2)CCN(C(=O)[C@@H](Cc2ccc(Cl)cc2)NC(=O)[C@H]2CCc3ccccc3[C@H]2N)CC1
Result block: 11

###

Assay: Pharmacokinetic parameter Vdss studied in rat
Assay type: ADME, organism-based
Settings: in vivo, read-out: Vdss
Measured Attribute: Vd (L/kg)
Give just the number in L/kg; leave the unit off.

Query block: Look up Vd for this molecule: CC(C)(C)NC(=O)C1(C2CCCCC2)CCN(C(=O)[C@@H](Cc2ccc(Cl)cc2)NC(=O)[C@H]2CCc3ccccc3[C@H]2N)CC1
Result block: 3.9
